Reference for the values: patent US12472168B2

System: Streptococcus
measurementNotes: MIC and MBC assays
Assay type: cell-based
conditionDescription: compound alone, no antibiotic
measure: MBC (µM)
Write the number in µM without appending the unit.

Quick one: give measured MBC for CCCCCOc1ccc(-c2sc3c(OC)c(Cc4cccc5ccccc45)cc(=O)n3c2C(=O)O)cc1C [Example 8]
7

Quick one: give measured MBC for CCOc1ccc(-c2sc3c(C4CC4)c(Cc4cccc5ccccc45)cc(=O)n3c2C(=O)O)cc1C [Example 5]
10

Quick one: give measured MBC for CCCCOc1ccc(-c2sc3c(OC)c(Cc4cccc5ccccc45)cc(=O)n3c2C(=O)O)cc1C [Example 9]
8

Quick one: give measured MBC for CCCCCOc1ccc(-c2sc3c(C4CC4)c(Cc4cccc5ccccc45)cc(=O)n3c2C(=O)O)cc1C [Example 6]
23

Quick one: give measured MBC for CCCOc1ccc(-c2sc3c(C4CC4)c(Cc4cccc5ccccc45)cc(=O)n3c2C(=O)O)cc1C [Example 2]
5

Quick one: give measured MBC for COc1ccc(-c2sc3c(C4CC4)c(Cc4cccc5ccccc45)cc(=O)n3c2C(=O)O)cc1C [Example 4]
9

Quick one: give measured MBC for Cc1cccc(-c2sc3c(C4CC4)c(Cc4cccc5ccccc45)cc(=O)n3c2C(=O)O)c1 [Example 30]
19

Quick one: give measured MBC for CCCCCOc1ccc(-c2sc3c(C4CC4)c(Cc4cccc5ccccc45)cc(=O)n3c2C(=O)O)cc1 [Example 12]
2

* * *

The listing below reports MIC for molecules tested on E. faecalis.
Write the number in µM without appending the unit.

Quick one: give measured MIC for O=C(O)c1c(Cc2ccccc2)sc2c(C3CC3)c(Cc3cccc4ccccc34)cc(=O)n12
25

Quick one: give measured MIC for O=C(O)C1CSc2c(-c3cccc(C(F)(F)F)c3)c(Cc3c4ccccc4cc4ccccc34)cc(=O)n21 (stereo not shown)
100

* * *

Test system: Streptococcus
measurementNotes: MIC and MBC assays
Assay type: cell-based
conditionDescription: compound alone, no antibiotic
measure: MBC (µM)
Write the number in µM without appending the unit.

Quick one: give measured MBC for CCCCCCCOc1ccc(-c2sc3c(C4CC4)c(Cc4cccc5ccccc45)cc(=O)n3c2C(=O)O)cc1C
50

Quick one: give measured MBC for CCCOc1ccc(-c2sc3c(OC)c(Cc4cccc5ccccc45)cc(=O)n3c2C(=O)O)cc1C
5

Quick one: give measured MBC for CCCCCCOc1ccc(-c2sc3c(C4CC4)c(Cc4cccc5ccccc45)cc(=O)n3c2C(=O)O)cc1C
9

Quick one: give measured MBC for CCCCOc1ccc(-c2sc3c(C4CC4)c(Cc4cccc5ccccc45)cc(=O)n3c2C(=O)O)cc1
3

Quick one: give measured MBC for CCCCOc1ccc(-c2sc3c(C4CC4)c(Cc4cccc5ccccc45)cc(=O)n3c2C(=O)O)cc1C
7

* * *

I'd appreciate it if you could supply MIC values for the items below.
Write the number in µM without appending the unit.

Please respond with reported MIC (system E. faecalis) for CCCCCCCOc1ccc(-c2sc3c(C4CC4)c(Cc4cccc5ccccc45)cc(=O)n3c2C(=O)O)cc1C .
183

Please respond with reported MIC (system E. faecalis) for CCOc1ccc(-c2sc3c(C4CC4)c(Cc4cccc5ccccc45)cc(=O)n3c2C(=O)O)cc1C .
250

Please respond with reported MIC (system E. faecalis) for CCCOc1ccc(-c2sc3c(C4CC4)c(Cc4cccc5ccccc45)cc(=O)n3c2C(=O)O)cc1C .
250

Please respond with reported MIC (system E. faecalis) for CCCCCOc1ccc(-c2sc3c(C4CC4)c(Cc4cccc5ccccc45)cc(=O)n3c2C(=O)O)cc1C .
200
